Let's look at some compounds and their measured cell viability.
- System: MOLM14;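 further: after 48 h exposure read by CellTiter-Glo luminescence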
- ASSAY OVERVIEW: cell viability relative to vehicle control; higher = less cytotoxic
- MEASUREMENT CONDITIONS: 10 µM; SRSF2 genotype: SRSF2 P95H/wt
Where a name gives a salt, the structure may show the parent alone.
Response body: numeric value in %, unit text excluded.

Solved cases below.
COMPOUND	cell viability (%)
O=C(CCCCCCNC(=O)c1cnc(N(c2ccccc2)c2ccccc2)nc1)NO	2.73
Cc1ccc2nc(NC(=O)CSc3nc4c(c(=O)n3-c3ccccc3)SCC4)sc2c1	98.9

stdin: Identify measured cell viability corresponding to COc1cc2c(cc1OC)-c1cc3ccc(OC)c(OC)c3c[n+]1CC2 [Palmatine]
stdout: 93.5

stdin: Identify measured cell viability corresponding to C[C@@H]1CC(=O)c2c(ccc3c2C(=O)c2cccc(O)c2C3=O)C1
stdout: 53.9

stdin: Identify measured cell viability corresponding to CNC(=O)c1cc(Oc2ccc3nc(N[C@@H]4CCCC[C@H]4O)sc3c2)ccn1
stdout: 89.2

stdin: Identify measured cell viability corresponding to NCc1c[nH]c(=S)n1[C@@H]1CCc2c(F)cc(F)cc2C1 [(R)-Nepicastat HCl]
stdout: 97.2

stdin: Identify measured cell viability corresponding to Cc1ccc(Nc2nccc(N(C)c3ccc4c(C)n(C)nc4c3)n2)cc1S(N)(=O)=O [Pazopanib]
stdout: 69.4
